Reference source for all entries: patent US20120023600A1

Target: T1, biotinylated human DKK1 (human, UniProt O94907 32-266, biotinylated (sites not given))
T1 construct: also called biotinylated DKK1; human recombinant, biotinylated DKK1
T1 sequence: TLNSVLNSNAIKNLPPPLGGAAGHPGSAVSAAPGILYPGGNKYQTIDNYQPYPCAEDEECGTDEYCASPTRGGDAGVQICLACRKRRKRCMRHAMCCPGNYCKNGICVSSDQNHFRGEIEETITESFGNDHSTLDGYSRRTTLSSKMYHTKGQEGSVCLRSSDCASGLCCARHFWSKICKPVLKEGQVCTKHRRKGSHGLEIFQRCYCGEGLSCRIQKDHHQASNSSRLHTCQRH
Assay: ELISA, biotinylated DKK1 on Neutravidin plates, Fab 1 ug/ml, anti-FLAG-AP detection; single measurement
The entries below come with measured Binding activity w/50% Human serum vs 4% BSA (%) values attached.

Input: What value of Binding activity w/50% Human serum vs 4% BSA (%) has been recorded for this entry: MOR04907 (Fab, V domains shown) VH: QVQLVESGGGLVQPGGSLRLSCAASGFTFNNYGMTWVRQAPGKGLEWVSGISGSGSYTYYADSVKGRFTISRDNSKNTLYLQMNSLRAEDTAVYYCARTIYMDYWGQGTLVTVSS VL: DIVLTQSPATLSLSPGERATLSCRASQNLFSPYLAWYQQKPGQAPRLLIYGASNRATGVPARFSGSGSGTDFTLTISSLEPEDFAVYYCQQYLSLPTTFGQGTKVEIKR
Output: > 83%

Input: Which Binding activity w/50% Human serum vs 4% BSA (%) is listed for MOR04954 (Fab, V domains shown) VH: QVQLVESGGGLVQPGGSLRLSCAASGFTFSSYWMSWVRQAPGKGLEWVSVIEHKDKGGTTYYAASVKGRFTISRDNSKNTLYLQMNSLRAEDTAVYYCARHGIDFDHWGQGTLVTVSS VL: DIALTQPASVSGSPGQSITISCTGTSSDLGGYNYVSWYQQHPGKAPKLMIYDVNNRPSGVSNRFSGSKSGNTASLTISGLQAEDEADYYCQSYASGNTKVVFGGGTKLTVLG ?
Output: > 83%

Input: Consider the binder MOR04914 (Fab, V domains shown) VH: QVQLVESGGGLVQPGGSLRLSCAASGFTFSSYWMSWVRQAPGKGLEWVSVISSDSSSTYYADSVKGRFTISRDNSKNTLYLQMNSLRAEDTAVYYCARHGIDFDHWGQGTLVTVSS VL: DIALTQPASVSGSPGQSITISCTGTSSDLGGYNYVSWYQQHPGKAPKLMIYDVNNRPSGVSNRFSGSKSGNTASLTISGLQAEDEADYYCQSYTYTPISPVFGGGTKLTVLG and give its measured Binding activity w/50% Human serum vs 4% BSA (%).
Output: 83%

Input: For the binder MOR04921 (Fab, V domains shown) VH: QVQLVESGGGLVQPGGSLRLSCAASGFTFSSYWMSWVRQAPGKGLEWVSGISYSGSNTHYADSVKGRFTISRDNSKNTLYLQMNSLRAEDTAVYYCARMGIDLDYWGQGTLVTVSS VL: DIALTQPASVSGSPGQSITISCTGTSSDVGGFNYVSWYQQHPGKAPKLMIHDGSNRPSGVSNRFSGSKSGNTASLTISGLQAEDEADYYCQTWATSPLSSVFGGGTKLTVLG , what Binding activity w/50% Human serum vs 4% BSA (%) is on record?
Output: 93%
